# inhibition at 10 µM values compiled below
TESTED_SYSTEM: wild-type human cardiac sodium channel, hNav1.5 (late sodium current) (Homo sapiens, UniProt Q14524)
Construct: host or cells: HEK293
Sequence (Q14524 whole entry): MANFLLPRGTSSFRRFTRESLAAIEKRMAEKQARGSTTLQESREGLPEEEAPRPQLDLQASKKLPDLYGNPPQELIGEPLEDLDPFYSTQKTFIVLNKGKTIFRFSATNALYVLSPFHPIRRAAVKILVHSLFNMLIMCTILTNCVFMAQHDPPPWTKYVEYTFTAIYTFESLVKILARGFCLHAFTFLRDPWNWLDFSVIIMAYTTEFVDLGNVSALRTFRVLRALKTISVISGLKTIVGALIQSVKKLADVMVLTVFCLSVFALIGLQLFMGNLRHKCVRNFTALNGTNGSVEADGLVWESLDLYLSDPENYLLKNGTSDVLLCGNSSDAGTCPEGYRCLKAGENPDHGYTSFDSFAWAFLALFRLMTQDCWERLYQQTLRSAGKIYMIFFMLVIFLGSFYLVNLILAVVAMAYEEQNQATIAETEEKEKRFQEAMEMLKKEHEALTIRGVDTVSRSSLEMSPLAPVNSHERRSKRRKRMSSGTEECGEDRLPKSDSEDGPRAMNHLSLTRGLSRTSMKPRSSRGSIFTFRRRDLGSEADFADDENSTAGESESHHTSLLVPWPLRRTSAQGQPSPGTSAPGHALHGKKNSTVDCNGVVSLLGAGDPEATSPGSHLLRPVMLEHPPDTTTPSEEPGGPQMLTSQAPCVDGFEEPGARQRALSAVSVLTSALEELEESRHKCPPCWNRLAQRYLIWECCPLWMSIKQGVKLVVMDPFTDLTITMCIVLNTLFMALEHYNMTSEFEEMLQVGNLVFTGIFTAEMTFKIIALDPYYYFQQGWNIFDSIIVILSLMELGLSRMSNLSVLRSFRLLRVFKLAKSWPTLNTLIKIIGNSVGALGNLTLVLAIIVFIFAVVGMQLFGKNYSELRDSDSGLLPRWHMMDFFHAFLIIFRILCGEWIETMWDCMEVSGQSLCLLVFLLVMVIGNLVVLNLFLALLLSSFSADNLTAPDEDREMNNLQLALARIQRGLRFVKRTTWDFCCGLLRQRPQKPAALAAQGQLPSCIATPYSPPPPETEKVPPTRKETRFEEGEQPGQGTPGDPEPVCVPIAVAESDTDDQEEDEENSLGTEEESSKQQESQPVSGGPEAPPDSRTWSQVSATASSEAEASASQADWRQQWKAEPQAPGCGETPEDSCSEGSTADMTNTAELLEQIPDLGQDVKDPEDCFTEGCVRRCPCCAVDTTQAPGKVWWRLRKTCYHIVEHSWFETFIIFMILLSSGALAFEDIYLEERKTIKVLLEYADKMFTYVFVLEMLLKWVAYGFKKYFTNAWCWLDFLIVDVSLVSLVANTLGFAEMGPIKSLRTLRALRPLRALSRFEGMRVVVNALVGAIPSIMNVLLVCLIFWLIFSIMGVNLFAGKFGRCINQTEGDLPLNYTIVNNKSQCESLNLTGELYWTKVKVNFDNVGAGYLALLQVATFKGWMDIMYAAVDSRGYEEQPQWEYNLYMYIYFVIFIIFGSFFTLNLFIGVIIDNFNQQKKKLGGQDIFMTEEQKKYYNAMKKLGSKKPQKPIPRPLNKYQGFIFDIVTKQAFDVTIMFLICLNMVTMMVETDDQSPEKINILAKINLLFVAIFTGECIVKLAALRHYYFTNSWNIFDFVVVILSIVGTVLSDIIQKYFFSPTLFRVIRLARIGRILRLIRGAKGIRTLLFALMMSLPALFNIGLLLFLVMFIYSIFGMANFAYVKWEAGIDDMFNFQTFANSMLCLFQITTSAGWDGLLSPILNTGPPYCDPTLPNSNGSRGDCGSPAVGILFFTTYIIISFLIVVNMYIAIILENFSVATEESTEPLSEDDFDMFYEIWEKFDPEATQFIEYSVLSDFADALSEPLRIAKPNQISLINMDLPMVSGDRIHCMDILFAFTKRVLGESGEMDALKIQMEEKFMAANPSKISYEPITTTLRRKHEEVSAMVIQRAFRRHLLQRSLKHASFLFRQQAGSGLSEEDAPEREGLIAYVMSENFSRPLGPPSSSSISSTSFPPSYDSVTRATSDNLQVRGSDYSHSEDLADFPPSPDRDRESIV
PROCEDURE_DETAILS: Late INa screening assay (PatchXpress whole cell patch clamp)
Format: cell-based
MEASUREMENT_CONTEXT: 10 μM test compound; HEK293 hNav1.5; late INa generated with 10 μM Tefluthrin (some experiments 50 nM ATX II); read-out: Late INa % blk (10 μM test cmpd)

# MOLECULE, UNIT_TAG, inhibition at 10 µM
data = [
    ("C#Cc1cc(NS(C)(=O)=O)ccc1-c1ccc(Oc2ccccc2)cc1 [PT-129]", "%", 44.4),
    ("O=S(=O)(Nc1ccc(-c2cccc(OC(F)(F)F)c2)c(Cl)c1)C1CC1 [PT-047]", "%", 77.7),
    ("CS(=O)(=O)N(Cc1ccc(C(=O)O)cc1)c1ccc(-c2ccc(Oc3ccccc3)cc2)cc1 [PT-156]", "%", 7.9),
    ("CS(=O)(=O)Nc1ccc(-c2ccc(C(F)(F)F)cc2)c(N)c1 [PT-164]", "%", 12.2),
    ("COC(=O)c1cc(-c2ccc(Oc3ccccc3)cc2)ccc1NS(=O)(=O)C1CC1 [PT-116]", "%", 11.2),
    ("Cc1cc(NS(=O)(=O)C2CC2)ccc1-c1ccc(C#N)cc1 [PT-150]", "%", 22.5),
    ("CS(=O)(=O)N(CCN1CCCCC1)c1ccc(-c2ccc(Cl)c(F)c2)c(Cl)c1 [PT-062]", "%", 74.8),
    ("CS(=O)(=O)Nc1ccc(-c2cc(C(F)(F)F)ccc2F)c(Cl)c1 [PT-070]", "%", 69.7),
    ("O=C(O)c1cc(-c2ccc(Oc3ccccc3)cc2)ccc1NS(=O)(=O)C1CC1 [PT-117]", "%", 40.7),
    ("Cc1cc(N(Cc2ccc([N+](=O)[O-])cc2)S(C)(=O)=O)ccc1-c1ccc(Oc2ccccc2)cc1 [PT-143]", "%", 8.7),
    ("CS(=O)(=O)Nc1ccc(-c2ccc(F)cc2Cl)cc1Cl [PT-098]", "%", 36.4),
    ("CS(=O)(=O)Nc1ccc(-c2ccc(F)cc2Cl)c(Cl)c1 [PT-045]", "%", 57.5),
    ("COc1cc(NS(C)(=O)=O)ccc1-c1cccc(OC(F)(F)F)c1 [PT-010]", "%", 48.2),
    ("CS(=O)(=O)Nc1ccc(-c2ccc(OC(F)(F)F)cc2)cc1OC(F)(F)F [PT-099]", "%", 8.9),
    ("COC(=O)c1ccc(-c2ccc(NS(C)(=O)=O)cc2Cl)cc1 [PT-044]", "%", 50.6),
    ("COC(=O)c1cc(-c2ccc(Oc3ccccc3)cc2)ccc1NS(C)(=O)=O [PT-118]", "%", 40.8),
    ("Cc1cc(NS(C)(=O)=O)ccc1-c1ccc(F)c(Cl)c1 [PT-039]", "%", 62.9),
    ("O=S(=O)(Nc1ccc(-c2ccc(Oc3ccccc3)cc2)cc1OC(F)(F)F)C1CC1 [PT-114]", "%", 14.1),
    ("CS(=O)(=O)Nc1ccc(-c2cccc(OC(F)(F)F)c2)c(F)c1 [PT-067]", "%", 70.7),
    ("CS(=O)(=O)Nc1ccc(-c2cc(F)cc(F)c2)c(Cl)c1 [PT-068]", "%", 42.2),
    ("CNC(=O)c1cc(N(Cc2ccc(S(C)(=O)=O)cc2)S(C)(=O)=O)ccc1-c1ccc(Oc2ccccc2)cc1 [PT-138]", "%", 12.6),
    ("Cc1cc(N(Cc2ccc(CC(=O)O)cc2)S(=O)(=O)C2CC2)ccc1-c1ccc(Oc2ccccc2)cc1 [PT-133]", "%", 34.1),
    ("CS(=O)(=O)N(Cc1nn[nH]n1)c1ccc(-c2ccc(Cl)c(F)c2)c(Cl)c1 [PT-064]", "%", 30.5),
    ("CS(=O)(=O)Nc1ccc(-c2ccc(Oc3ccccc3)cc2)cc1 [PT-033]", "%", 15.1),
    ("CS(=O)(=O)Nc1ccc(-c2ccc(F)cc2F)c(Cl)c1 [PT-024]", "%", 43.5),
    ("CC(C)(C)OC(=O)CN(c1ccc(-c2ccc(C(F)(F)F)cc2)c(Cl)c1)S(C)(=O)=O [PT-128]", "%", 25.7),
    ("COP(=O)(O)c1cc(-c2ccc(Oc3ccc(F)cc3)cc2)ccc1NS(C)(=O)=O [PT-159]", "%", 36.1),
    ("CS(=O)(=O)Nc1cccc(-c2ccc(C(F)(F)F)c(F)c2)c1 [PT-132]", "%", 65.9),
    ("Cc1cc(N(Cc2cccnc2)S(C)(=O)=O)ccc1-c1cccc(OC(F)(F)F)c1 [PT-073]", "%", 64.4),
    ("CS(=O)(=O)Nc1ccc(-c2ccc(C(F)(F)F)cc2)c(Cl)c1 [PT-018]", "%", 50.6),
    ("CS(=O)(=O)N(CC(=O)O)c1ccc(-c2ccc(F)c(Cl)c2)c(Cl)c1 [PT-104]", "%", 14.2),
]

###

# inhibition at 10 µM values compiled below
TESTED_SYSTEM: wild-type human cardiac sodium channel, hNav1.5 (late sodium current) (Homo sapiens)
Construct: host or cells: HEK293
PROCEDURE_DETAILS: Late INa screening assay (PatchXpress whole cell patch clamp)
Format: cell-based
MEASUREMENT_CONTEXT: 10 μM test compound; HEK293 hNav1.5; late INa generated with 10 μM Tefluthrin (some experiments 50 nM ATX II); read-out: Late INa % blk (10 μM test cmpd)

# GIVEN_SMILES, inhibition at 10 µM / %
measured = [
    ("COc1cc(NS(C)(=O)=O)ccc1-c1ccc(Cl)c(F)c1", 58.3),
    ("O=S(=O)(Nc1ccc(-c2ccc(F)c(Cl)c2)c(Cl)c1)C1CC1", 60.1),
    ("CCOC(=O)CN(c1ccc(-c2ccc(Cl)c(F)c2)c(Cl)c1)S(C)(=O)=O", 60),
    ("N#Cc1cc(-c2ccc(Oc3ccccc3)cc2)ccc1NS(=O)(=O)C1CC1", 61.8),
    ("CS(=O)(=O)Nc1ccc(-c2cccc(OC(F)(F)F)c2)c(C(F)(F)F)c1", 60.8),
]
